// data source = patent US20240052042A1

- Measurement target: T1, human Natriuretic Peptide Receptor 1 (hNPR1) (human, UniProt P16066 33-473, limits assumed)
- T1 construct: pannings used NPR1-hFc; also called NPR1-hFc
- T1 sequence: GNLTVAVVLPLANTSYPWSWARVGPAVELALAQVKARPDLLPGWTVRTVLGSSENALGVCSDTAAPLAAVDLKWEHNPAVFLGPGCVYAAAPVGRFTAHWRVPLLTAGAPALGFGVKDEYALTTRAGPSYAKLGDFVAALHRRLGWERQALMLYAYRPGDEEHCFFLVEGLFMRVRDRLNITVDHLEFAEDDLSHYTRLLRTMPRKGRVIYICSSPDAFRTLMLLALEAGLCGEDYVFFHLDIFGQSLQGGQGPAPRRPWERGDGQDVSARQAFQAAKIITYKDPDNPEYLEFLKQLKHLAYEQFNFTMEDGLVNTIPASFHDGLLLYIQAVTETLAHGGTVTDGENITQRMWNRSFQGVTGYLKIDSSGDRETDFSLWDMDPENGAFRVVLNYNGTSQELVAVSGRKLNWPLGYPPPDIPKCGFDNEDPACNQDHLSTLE
- Test: SET, FabCys
Experimental readout: Kd
Hey, just the number and the unit after it is fine.

[Q] Let me know recorded Kd for ZZ15 (FabCys format) (Fab, V domains shown, Monovalent FabCys) VH: EVQLLESGGGLVQPGGSLRLSCAASGFTFASYAITWVRQAPGKGLEWVSTISGSGVYTYYAESVKGRFTISRDNSKNTLYLQMNSLRAEDTAVYYCARPYLGDRRSYGFDHWGQGTLVTVSS VL: QSALTQPASVSGSPGQSITISCTGTSSDVGSYNLVSWYQQHPGKAPKLMIYEGSKRPSGVSNRFSGSKSGNTASLTISGLQAEDEADYYCSSYGFHIVVVVFGGGTKLTVL , thanks.
[A] 0.053 nM
